Target: CTNNAL1
Experiment: pooled miR-30 sensor sort-seq; sequence = guide strand; further: reference of the scale not given here
Details: shRNA
Here the recorded sensor-assay potency score (higher = more potent) is given for each entry.
attribute measured: sensor-assay potency score (higher = more potent)

>>> recorded_result("TTCATTTCCAAATTGACTGAAT")
0.0043
>>> recorded_result("TTGAACACTGGAAGTAAGCTTT")
0.00936
>>> recorded_result("TTGTAACTGAGACCCATCCGTT")
-0.457
>>> recorded_result("TCGACAGGTCTCAACAAGCTGC")
-0.481
>>> recorded_result("TTGTCTTCGTAATACACTTGTC")
-0.611
>>> recorded_result("TTCATTAAGACTGTGACTGATT")
0.0876

---

Here the recorded sensor-assay potency score (higher = more potent) is given for each entry.
Target: AP2B1
Assay: pooled miR-30 sensor sort-seq; sequence = guide strand
Conditions: shRNA
attribute measured: sensor-assay potency score (higher = more potent)

>>> recorded_result("TAATCTGAAACTGAAGTTCATT")
-0.631
>>> recorded_result("TTCATTAGGACTTTTACCGCTG")
0.615
>>> recorded_result("TTGTTGTTTTGCAACTTGCTGG")
-0.34
>>> recorded_result("TATTGTAGTAGTCAGAATCCTT")
0.0218
>>> recorded_result("TAGAAGATCACCTTGAGAGGGG")
0.529
>>> recorded_result("TAACAATTCTAGAAACTTCATT")
-0.559
>>> recorded_result("TTTAGTTCAAATATTTCTCCTT")
0.5
>>> recorded_result("TAGCATATTCTTTCAGTTCTGC")
0.583
>>> recorded_result("TAGAGAATCCAGAAATCCCTGA")
0.164
>>> recorded_result("TAGTTCCAGATTGTCAGTCTGC")
-0.496
>>> recorded_result("AATAGTATAAACATTGTTGTTT")
-0.183

---

Target: LARP1B
Assay: pooled miR-30 sensor sort-seq; sequence = guide strand
Settings: shRNA
Here the recorded sensor-assay potency score (higher = more potent) is given for each entry.
attribute measured: sensor-assay potency score (higher = more potent)

>>> recorded_result("TTTCTTGACTCTCTGATCTTAC")
-0.67
>>> recorded_result("TAAATGTGTTTTTTCGTCCTAT")
0.39
>>> recorded_result("TGATCTTACAACATCTAAGTGG")
-0.00509
>>> recorded_result("TAGTAATACATCATACTGGTAT")
-0.0186
>>> recorded_result("TGAAACATCAAATAACTTCTGA")
0.226
>>> recorded_result("TTTACTAATGAGATTTAGCTTC")
-0.374
>>> recorded_result("TTCTTCTGAAGAACATAGCTGA")
0.273
>>> recorded_result("TTTATTGAAGTGATCTCTGAGG")
-0.332
>>> recorded_result("TTCTACTTCTGTGCTATCCTTC")
0.509
>>> recorded_result("TAGGATCTTGTAACCTAGGTGT")
0.016

---

Target: TOMM40L
Test: pooled miR-30 sensor sort-seq; sequence = guide strand
Settings: shRNA
Rule: sensor-assay potency score (higher = more potent) of -0.3 or more gives met; anything lower gives not met.

>>> label_class("TTACTATCCACCAAGCCTCTAA")
"not met"
>>> label_class("TAAGAGGTAAAGAAGCTCCTTC")
"met"
>>> label_class("TTATACCATAGAACACATCCAC")
"met"
>>> label_class("TGTGGTAGTAACTTGCATGGGC")
"met"
>>> label_class("TTTCTCTAATGTTCAGACCTGG")
"not met"
>>> label_class("TCTGATAGTCTGTCATACCAGA")
"not met"

---

Target: USP43
Test: pooled miR-30 sensor sort-seq; sequence = guide strand
Details: shRNA
Here the recorded sensor-assay potency score (higher = more potent) is given for each entry.
attribute measured: sensor-assay potency score (higher = more potent)

>>> recorded_result("TAGGTAGGGACACACACAGGAA")
-1.19
>>> recorded_result("TCGTACAGGAAGTCCAGCGGGT")
-0.327
>>> recorded_result("TAGCACCTTGCTCTCACTGTGG")
-0.424
>>> recorded_result("TTGCACAAAGCTTTGACCTAGA")
0.359
>>> recorded_result("TAGAACAGGATATAAGCCCCTC")
-0.232
>>> recorded_result("TTTGCACAAAGCTTTGACCTAG")
0.51
>>> recorded_result("TTGCTGAGGATAGACTGCTGGA")
-0.504
>>> recorded_result("TGTAGAACTGAAAACATTCATC")
-0.712

---

Target: CA8
Assay: pooled miR-30 sensor sort-seq; sequence = guide strand
Conditions: shRNA
Rule: sensor-assay potency score (higher = more potent) of -0.2 or more gives rule met; anything lower gives rule not met.

>>> label_class("AAATTCTTCTATCTGTAGCTGG")
"rule met"
>>> label_class("TAACACATGATATATATTCATA")
"rule not met"
>>> label_class("TTCATATTAATAACAACTCTGG")
"rule met"
>>> label_class("ATTAGCATCAGGAAACACCAGA")
"rule not met"
>>> label_class("TTAACATGTGTCCTCAGCCTTC")
"rule not met"
>>> label_class("TTTGAGGATAAACTGAAGGTGC")
"rule met"
>>> label_class("TTCTTTGGAATATACAGCCATT")
"rule not met"
>>> label_class("TTCTTCTATCTGTAGCTGGGAT")
"rule not met"
>>> label_class("TATAGGACCATTGTCTTCCTCC")
"rule not met"
>>> label_class("TAACCTGAATGGTATGTCCATC")
"rule not met"
>>> label_class("AAAAGCTTTGAAATTAACCGTG")
"rule met"
>>> label_class("TTGGTGACTTCACAGTCTCGGC")
"rule not met"
>>> label_class("TTAGGTTAATAGGAGACTGGTA")
"rule not met"

---

Molecular target: ENO2
Test: pooled miR-30 sensor sort-seq; sequence = guide strand
Conditions: shRNA
Rule: sensor-assay potency score (higher = more potent) of -0.7 or more gives 1 (yes); anything lower gives 0 (no).

>>> label_class("TTCAGTGACCGAGCCGATCTGG")
"1 (yes)"
>>> label_class("TATGGTAGACCTCTGCACCTAG")
"1 (yes)"
>>> label_class("TGATGTATCGGGAAGGATCAGT")
"1 (yes)"
>>> label_class("TTGGATGGCTTCAGTGACCGAG")
"1 (yes)"
>>> label_class("TACATTGGCTGTGAACTTGGAC")
"1 (yes)"
>>> label_class("TATTTGTCCTTGATGACTCCCT")
"1 (yes)"
>>> label_class("TTGAGCAGCAGACAGTTGCAGG")
"0 (no)"
>>> label_class("TAGTCCCTGACAAAGTCCTGGT")
"1 (yes)"
>>> label_class("TAGACCTCTGCACCTAGTCGCA")
"0 (no)"
>>> label_class("TATAGAGATCCACCTCCACTGT")
"0 (no)"
>>> label_class("TTGGCTGTGAACTTGGACCAGG")
"1 (yes)"
>>> label_class("ATTGGTGGCATCCTTGCCGTAT")
"1 (yes)"
>>> label_class("TAGAGATCCACCTCCACTGTGG")
"1 (yes)"
>>> label_class("TTTGTCTCCATCCCTCAGCTCC")
"0 (no)"

---

Target: CCNA1
Assay: pooled miR-30 sensor sort-seq; sequence = guide strand
Settings: shRNA
attribute measured: sensor-assay potency score (higher = more potent)

>>> recorded_result("TAACAGTTGTCGTTTTGTGTAT")
-0.217
>>> recorded_result("TTTCACTTAATGAATACCCTGT")
1.11
>>> recorded_result("TTAGCCAGGTTCTCAGTCCTGA")
-0.236
>>> recorded_result("TGAGTATCTGACAAGCATCGGG")
0.0337
>>> recorded_result("TAGAACTTTCAGAAGCAAGTGT")
0.493
>>> recorded_result("TAATTGCTTGCTGAGGTCGATG")
-1.07

---

Target: PROC
Test: pooled miR-30 sensor sort-seq; sequence = guide strand
Settings: shRNA
attribute measured: sensor-assay potency score (higher = more potent)

>>> recorded_result("TCATTGTCGGTGGTGCTCTTGC")
-0.681
>>> recorded_result("ATGTTGCTCATGACCTCGCTGC")
-0.588
>>> recorded_result("TTGGTGTAAACGCCGTAGTTGT")
-1.16
>>> recorded_result("ATTGAGGAAGCTCACCTCGCGC")
-1.35
>>> recorded_result("TTGCTCATGACCTCGCTGCACT")
-0.963
>>> recorded_result("TTTGCGGATCCGCAGCACCTGG")
-1.65

---

Molecular target: ACBD3
Test: pooled miR-30 sensor sort-seq; sequence = guide strand
Conditions: shRNA
Here the recorded sensor-assay potency score (higher = more potent) is given for each entry.
attribute measured: sensor-assay potency score (higher = more potent)

>>> recorded_result("TTAACTGACATCATATTACTTG")
0.151
>>> recorded_result("TTTTTCTTTGAAGAAGCGCAGT")
-0.812
>>> recorded_result("TCTTCTTCTATCCGTCTCCTTT")
-0.731
>>> recorded_result("TAAAGCTGCCATTATCTGCTGC")
-0.101
>>> recorded_result("TTTCTCTTCACAACCGATGTTT")
-0.314
>>> recorded_result("TAGTAGACTGATTTTGACCGCC")
0.374
>>> recorded_result("TTGCTGTGCAAGCTGGACTTGA")
-0.769
